- MEASUREMENT_TARGET: T1, mouse DKK1 (R&D Systems) (mouse, UniProt O54908 32-272)
- T1 construct: Bought protein
- T1 sequence (looked up): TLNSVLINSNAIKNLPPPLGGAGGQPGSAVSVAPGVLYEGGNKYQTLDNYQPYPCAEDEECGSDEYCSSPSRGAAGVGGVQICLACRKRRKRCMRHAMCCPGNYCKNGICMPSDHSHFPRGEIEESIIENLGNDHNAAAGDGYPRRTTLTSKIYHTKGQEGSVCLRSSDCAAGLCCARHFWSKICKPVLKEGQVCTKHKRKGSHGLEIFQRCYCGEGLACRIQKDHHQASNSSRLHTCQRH
- ASSAY_REMARKS: solution equilibrium titration (SET), ECL (BioVeris), Fab
QUANTITY: pKd
The meaning of pKd here: minus log10 of the concentration in molar units.

Record MOR04954 (Fab, V domains shown) VH: QVQLVESGGGLVQPGGSLRLSCAASGFTFSSYWMSWVRQAPGKGLEWVSVIEHKDKGGTTYYAASVKGRFTISRDNSKNTLYLQMNSLRAEDTAVYYCARHGIDFDHWGQGTLVTVSS VL: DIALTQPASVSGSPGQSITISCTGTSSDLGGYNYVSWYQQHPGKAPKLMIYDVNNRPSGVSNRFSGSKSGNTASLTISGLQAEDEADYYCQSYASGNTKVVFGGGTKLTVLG . Reported pKd: 10.44

pKd reading for MOR04907 (Fab, V domains shown) VH: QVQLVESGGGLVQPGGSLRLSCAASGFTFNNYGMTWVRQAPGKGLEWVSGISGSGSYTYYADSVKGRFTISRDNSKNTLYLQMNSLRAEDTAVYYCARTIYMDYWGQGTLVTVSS VL: DIVLTQSPATLSLSPGERATLSCRASQNLFSPYLAWYQQKPGQAPRLLIYGASNRATGVPARFSGSGSGTDFTLTISSLEPEDFAVYYCQQYLSLPTTFGQGTKVEIKR : 9.78

Measured pKd, MOR04914 (Fab, V domains shown) VH: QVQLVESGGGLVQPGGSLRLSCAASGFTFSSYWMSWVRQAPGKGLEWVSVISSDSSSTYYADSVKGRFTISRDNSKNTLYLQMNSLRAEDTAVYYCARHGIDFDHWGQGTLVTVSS VL: DIALTQPASVSGSPGQSITISCTGTSSDLGGYNYVSWYQQHPGKAPKLMIYDVNNRPSGVSNRFSGSKSGNTASLTISGLQAEDEADYYCQSYTYTPISPVFGGGTKLTVLG : 9.70
